These entries and their values trace back to paper PMC4336329.

# EXPERIMENTAL_TARGET: human ether-à-go-go-related gene (hERG) potassium channel (human)
# Sequence (Q12809 whole entry, looked up): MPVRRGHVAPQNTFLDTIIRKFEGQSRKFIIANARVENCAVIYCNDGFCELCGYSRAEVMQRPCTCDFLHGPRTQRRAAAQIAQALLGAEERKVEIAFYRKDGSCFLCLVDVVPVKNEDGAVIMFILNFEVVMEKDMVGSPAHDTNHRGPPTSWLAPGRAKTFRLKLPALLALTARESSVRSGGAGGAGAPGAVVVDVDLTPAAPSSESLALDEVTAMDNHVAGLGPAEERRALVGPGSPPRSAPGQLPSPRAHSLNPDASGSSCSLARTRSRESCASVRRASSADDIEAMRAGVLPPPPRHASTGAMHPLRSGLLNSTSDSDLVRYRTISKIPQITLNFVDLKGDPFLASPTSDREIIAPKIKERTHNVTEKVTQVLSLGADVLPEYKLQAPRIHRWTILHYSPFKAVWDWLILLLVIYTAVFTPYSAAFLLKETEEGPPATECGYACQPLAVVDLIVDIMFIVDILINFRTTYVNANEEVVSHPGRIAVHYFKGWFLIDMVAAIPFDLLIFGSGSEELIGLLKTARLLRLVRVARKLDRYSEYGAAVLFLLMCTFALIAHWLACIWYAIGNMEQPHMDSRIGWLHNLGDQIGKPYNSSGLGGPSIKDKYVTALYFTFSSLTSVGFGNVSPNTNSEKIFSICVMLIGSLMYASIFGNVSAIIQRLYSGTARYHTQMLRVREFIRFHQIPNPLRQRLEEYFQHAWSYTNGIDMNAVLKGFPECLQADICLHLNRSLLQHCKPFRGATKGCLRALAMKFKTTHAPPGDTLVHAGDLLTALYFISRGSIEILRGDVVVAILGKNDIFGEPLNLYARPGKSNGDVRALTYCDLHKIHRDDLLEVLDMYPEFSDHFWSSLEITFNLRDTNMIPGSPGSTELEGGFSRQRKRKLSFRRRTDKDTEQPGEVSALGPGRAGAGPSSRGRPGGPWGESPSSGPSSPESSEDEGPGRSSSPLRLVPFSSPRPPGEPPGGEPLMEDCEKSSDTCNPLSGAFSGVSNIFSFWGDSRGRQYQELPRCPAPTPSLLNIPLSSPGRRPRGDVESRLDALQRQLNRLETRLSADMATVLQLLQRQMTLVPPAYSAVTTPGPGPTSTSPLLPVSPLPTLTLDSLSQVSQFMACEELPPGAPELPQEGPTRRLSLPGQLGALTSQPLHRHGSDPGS
# METHOD_SUMMARY: primary screen, population patch clamp on CHO cells stably expressing hERG; higher = less effect of the substance
Hit rate of the full screen: of about 310,000 compounds, about 2,200 (0.71%) showed an effect of 50% or more. Effects have a minus sign here. The sample holds strong results, similar compounds and a random draw of the others, so the mix is not that of the screen.
MEASURED_ATTRIBUTE: hERG current change (%, negative = inhibition) at 1uM (%)

{"STRUCTURE_STRING": "COc1ccccc1CC(=O)NCCCc1ccccc1", "RECORDED_VALUE": 11.2}
{"STRUCTURE_STRING": "O=C(O)C(=O)O.c1ccc(-c2ccccc2OCCN2CCCCC2)cc1", "RECORDED_VALUE": -4.98}
{"STRUCTURE_STRING": "Cc1cc(Br)ccc1OCCN1CCCC1.O=C(O)C(=O)O", "RECORDED_VALUE": -7.85}
{"STRUCTURE_STRING": "O=C1N=C2SCCN2/C1=C\\c1ccccc1Cl", "RECORDED_VALUE": 5.64}
{"STRUCTURE_STRING": "CC1CCN(CCOc2ccccc2-c2ccccc2)CC1.O=C(O)C(=O)O", "RECORDED_VALUE": -8.4}
{"STRUCTURE_STRING": "CN1CCN(CCCCOc2ccccc2-c2ccccc2)CC1.O=C(O)C(=O)O", "RECORDED_VALUE": 16.8}
{"STRUCTURE_STRING": "O=C(O)c1ccc(S(=O)(=O)N(CCc2ccccc2)Cc2ccc(Cl)cc2)cc1", "RECORDED_VALUE": 11.5}
{"STRUCTURE_STRING": "COc1ccc(N2CCN(Cc3oc(CO)cc(=O)c3O)CC2)cc1", "RECORDED_VALUE": 2.29}
{"STRUCTURE_STRING": "O=C(Nc1ccccc1)N(C1=NCCCCS1)c1cccc2ccccc12", "RECORDED_VALUE": 5.62}
{"STRUCTURE_STRING": "COc1ccc(CCC(=O)Nc2ccc(Cn3ccnc3)cc2)cc1", "RECORDED_VALUE": 10.4}
